FYI, the data here is from patent US10662204B2.

Target Under Test: KRAS G12C (Homo sapiens, UniProt P01116, G12C)
Sequence (P01116 1-188 isoform P01116-2 G12C): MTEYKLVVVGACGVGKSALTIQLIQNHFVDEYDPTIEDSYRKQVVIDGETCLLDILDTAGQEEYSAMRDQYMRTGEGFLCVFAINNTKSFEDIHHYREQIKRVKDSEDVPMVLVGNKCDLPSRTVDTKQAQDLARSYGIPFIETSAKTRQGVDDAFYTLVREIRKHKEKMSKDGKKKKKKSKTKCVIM
Assay: Cell Activity Assay: accumulation of GDP-bound KRAS G12C in MIAPaCa-2 cells (Raf-1 RBD capture, MSD readout)
Assay type: cell-based
Parameters: endogenous in cells; host or cells: MIAPaCa-2
Study Conditions: 6 hours, assay limit is 30.00
Please respond with reported IC50 for every item in the list.

Please give measured IC50 of the following entry: C=CC(=O)N1CCN(c2nc(OCCc3ncc[nH]3)nc3c(Oc4c(C)ccc5[nH]ncc45)cccc23)CC1 [Example 09F] 3 µM

For the compound C=CC(=O)N1CCN(c2nc(OC[C@@H]3CCN(C)C3)nc3c(Oc4c(C)ccc5[nH]ncc45)nccc23)CC1 [Example 10B] , give its measured IC50 value. 13.4 µM

Tell me measured IC50 for C=CC(=O)N1CCN(c2nc(O[C@@H]3CN(C)C[C@H]3OC)nc3c(Oc4c(C)c(Cl)cc5[nH]ncc45)nccc23)CC1 [Example 40I] please. 0.02 µM

Write down IC50 measured for item C=CC(=O)N1CCN(c2nc(O[C@@H]3CN(C)C[C@H]3C(F)(F)F)nc3c(Oc4c(Cl)c(F)cc5[nH]ncc45)nccc23)CC1 [Example 57I] 0.024 µM

Indicate the recorded IC50 value for this compound: C=CC(=O)N1CCN(c2nc(OC[C@@]3(F)CCN(C)C3)nc3c(Oc4c(Cl)c(F)cc5[nH]ncc45)nccc23)CC1 [Example 15H] 0.461 µM

Tell me its IC50 given C=CC(=O)N1CCN(c2nc(N3CC(CN(C)C)C3)nc3c(Oc4c(C)ccc5[nH]ncc45)cccc23)CC1 [Example 10E] as the entry. 2.32 µM

Write down IC50 measured for item C=CC(=O)N1CCN(c2ncnc3c(Cc4c(C)ccc5[nH]ncc45)cccc23)CC1 [Example 01D] 6.69 µM

For C=CC(=O)N1CCN(c2ncnc3c(Oc4c(Cl)c(F)cc5[nH]ncc45)nccc23)CC1 [Example 02C] , write its IC50. 1.01 µM

Given the compound C=CC(=O)N1CCN(c2nc(OC[C@@H]3CCCN3C)nc3c(Oc4c(C)c(Cl)cc5[nH]ncc45)nccc23)CC1 [Example 13B] , write its reported IC50. 0.16 µM

Provide one value: measured IC50 of C=CC(=O)N1CCN(c2nc(Oc3cccc4c3CN(C)C4)nc3c(Oc4c(Cl)c(F)cc5[nH]ncc45)nccc23)CC1 [Example 41I] 0.021 µM

Fill in reported IC50 for this entry: C=CC(=O)N1CCN(c2ncnc3c(Oc4c(F)ccc5[nH]ncc45)nccc23)CC1 [Example 08A] 11.1 µM

Recall and state the measured IC50 for C=CC(=O)N1CCN(c2nc(NC3CNC(=O)C3)nc3c(Oc4c(C)ccc5[nH]ncc45)cccc23)CC1 (stereo not drawn) [Example 15F] . > 30 µM

Identify measured IC50 corresponding to C=CC(=O)N1CCN(c2nc(OCCCN(C)C)nc3c(Oc4c(C)ccc5[nH]ncc45)nccc23)CC1 [Example 04B] 23 µM

Consider the compound C=CC(=O)N1CCN(c2nc(OCc3cccnc3)nc3c(Oc4c(Cl)c(F)cc5[nH]ncc45)nccc23)CC1 [Example 07H] and give its recorded IC50. 0.285 µM

Supply IC50 value. Item: C=CC(=O)N1CCN(c2nc(OCCN3CCCC3)nc3c(Oc4c(C)ccc5[nH]ncc45)nccc23)CC1 [Example 12B] 5.45 µM

Please report the measured IC50 for C=CC(=O)N1CCN(c2nc(OC[C@H]3CCN(C)C3)nc3c(Oc4c(Cl)c(F)cc5[nH]ncc45)nccc23)CC1 [Example 18E] 0.262 µM

Identify the reported IC50 for the following entry. C=CC(=O)N1CCN(c2ncnc3c(Oc4c(Cl)ccc5[nH]ncc45)nc(C)cc23)CC1 [Example 05A] 8.41 µM

Quickly give me recorded IC50 for C=CC(=O)N1CCN(c2nc(OCCO)nc3c(Oc4c(Cl)c(F)cc5[nH]ncc45)nc(Cl)cc23)CC1 [Example 23G] 0.688 µM

Identify measured IC50 corresponding to C=CC(=O)N1CCN(c2ncnc3c(Oc4c(Cl)c(F)cc5[nH]ncc45)nc(Cl)cc23)CC1 [Example 20A] 0.255 µM

Output IC50 of C=CC(=O)N1CCN(c2nc(O[C@@H]3COC[C@H]3N(C)C)nc3c(Oc4c(Cl)c(F)cc5[nH]ncc45)nccc23)CC1 (racemic) [Example 23I] 0.348 µM

Kindly indicate its recorded IC50. Item: C=CC(=O)N1CCN(c2nc(OC[C@@H]3CCCN3C)nc3c(Oc4c(C)c(F)cc5[nH]ncc45)nccc23)CC1 [Example 04I] 0.375 µM

Please list IC50 recorded for the compound C=CC(=O)N1CCN(c2ncnc3c(Oc4c(C)c(Cl)cc5[nH]ncc45)nccc23)CC1 [Example 14A] 0.545 µM

Respond only with IC50 recorded for C=CC(=O)N1CCN(c2nc(O[C@@H]3CN(C)C[C@H]3OC)nc3c(Oc4c(C)ccc5[nH]ncc45)nc(Cl)cc23)CC1 [Example 35G] 0.027 µM

Specify IC50 for C=CC(=O)N1CCN(c2nc(OC[C@H]3COCCN3C)nc3c(Oc4c(Cl)c(F)cc5[nH]ncc45)nc(Cl)cc23)CC1 [Example 08G] and stop. 0.148 µM

Output IC50 of C=CC(=O)N1CCN(c2nc(O[C@@H]3CN(C)C[C@H]3C)nc3c(Oc4c(Cl)c(F)cc5[nH]ncc45)nc(Cl)cc23)CC1 (racemic) [Example 32G] 0.016 µM

Note IC50 for the compound shown: C=CC(=O)N1CCN(c2nc(Oc3cccc4c3CCN(C3CC3)C4)nc3c(Oc4c(Cl)c(F)cc5[nH]ncc45)nccc23)CC1 [Example 55I] 0.028 µM

Give a short answer stating reported IC50 for [2H]C([2H])([2H])N1C[C@@H](OC)[C@H](Oc2nc(N3CCN(C(=O)C=C)CC3)c3ccnc(Oc4c(Cl)c(F)cc5[nH]ncc45)c3n2)C1 [Example 56I] . 0.04 µM
